- System: IFNα-stimulated STAT-dependent luciferase reporter in Kit225 T cells
- ASSAY_PROTOCOL: Kit225 T cell assay, IFNα stimulated STAT-dependent luciferase reporter
- Format: cell-based, human
- PARTICULARS: Kit225 T cells, 200 U/mL human recombinant IFNα, 5-6 hours, luciferase; read-out: IFNα (Kit225 T Cell Inhibition Data)
REPORTED_METRIC: pIC50
Schema: pIC50 number; meaning minus log10 of the concentration expressed in molar units.

## Input Report measured pIC50; entry is "CNC(=O)c1cnc(Nc2cc(C)c(F)cn2)cc1Nc1cccc(C(=O)NCc2ccccc2)c1OC"
## Output 7.70

## Input Quick one: give measured pIC50 for "CNC(=O)c1cnc(Nc2ccc(N3CCOCC3)cn2)cc1Nc1ccccc1F"
## Output 5.70

## Input Identify pIC50 associated with the compound "CNC(=O)c1cnc(Nc2ccc(C#N)cn2)cc1Nc1ccccc1C(N)=O"
## Output 5.81
